Just for reference, ChEMBL document CHEMBL5528085 is where these values come from.

Target: Adenosine receptor A2b (Homo sapiens, UniProt P29275)
Sequence (P29275 whole entry): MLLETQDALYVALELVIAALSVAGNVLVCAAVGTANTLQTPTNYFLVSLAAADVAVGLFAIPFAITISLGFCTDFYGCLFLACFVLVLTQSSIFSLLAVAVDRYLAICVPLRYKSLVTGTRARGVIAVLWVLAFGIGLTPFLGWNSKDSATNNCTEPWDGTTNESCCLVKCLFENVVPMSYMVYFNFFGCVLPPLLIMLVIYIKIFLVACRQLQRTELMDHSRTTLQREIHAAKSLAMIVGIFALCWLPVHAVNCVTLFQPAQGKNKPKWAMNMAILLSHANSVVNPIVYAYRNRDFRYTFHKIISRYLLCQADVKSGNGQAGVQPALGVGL
Test: Antagonist activity at adenosine 2B receptor (unknown origin)
Assay type: functional
Property: IC50

>>> test_result("COc1ncc(C2=CCOCC2)c2sc(NC(=O)N3CC[C@@]4(CCCOC4)C3)nc12 [MUVADENANT]")
"< 10 nM"

* * *

target: Adenosine receptor A2a (Homo sapiens); assay: Antagonist activity at human adenosine 2A receptor overexpressed in HEK293 cells preincubated for 0.5 hrs followed by NECA stimulation by GloSensor cAMP assay; type: functional, cell-based
Sequence (P29274 whole entry): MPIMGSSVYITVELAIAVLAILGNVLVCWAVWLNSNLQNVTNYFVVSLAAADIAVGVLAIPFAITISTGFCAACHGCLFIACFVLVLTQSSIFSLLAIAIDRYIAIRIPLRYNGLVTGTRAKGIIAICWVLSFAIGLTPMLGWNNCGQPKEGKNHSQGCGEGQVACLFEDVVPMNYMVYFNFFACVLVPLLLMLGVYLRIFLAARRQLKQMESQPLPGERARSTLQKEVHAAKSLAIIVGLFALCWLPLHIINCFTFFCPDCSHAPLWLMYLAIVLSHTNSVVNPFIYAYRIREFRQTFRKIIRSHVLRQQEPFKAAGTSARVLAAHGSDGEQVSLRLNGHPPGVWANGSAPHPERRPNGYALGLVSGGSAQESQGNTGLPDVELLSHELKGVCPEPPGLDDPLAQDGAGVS
pIC50: −log10 of the molar value.
# key: entry, value: pIC50
Property: pIC50

>>> test_result("Cc1c(C#N)cccc1-c1cc(-c2cn(Cc3cccc4cc[nH]c34)nn2)nc(N)n1")
5.10
>>> test_result("Cc1c(C#N)cccc1-c1cc(-c2cn(Cc3c[nH]c4cc(C#N)ccc34)nn2)nc(N)n1")
6.62
>>> test_result("Cc1c(C#N)cccc1-c1cc(-c2cn(Cc3ccc4cc[nH]c4c3)nn2)nc(N)n1")
6.37
>>> test_result("Cc1c(C#N)cccc1-c1cc(-c2cn(Cc3c[nH]c4ccc(OC5CCCC5)cc34)nn2)nc(N)n1")
7.01
>>> test_result("Cc1c(C#N)cccc1-c1cc(-c2cn(Cc3c[nH]c4ccncc34)nn2)nc(N)n1")
6.77
>>> test_result("Cc1c(C#N)cccc1-c1cc(-c2cn(Cc3c[nH]c4ccc(F)cc34)nn2)nc(N)n1")
7.20
>>> test_result("Cc1c(C#N)cccc1-c1cc(-c2cn(Cc3c[nH]c4ccc(OC(C)C)cc34)nn2)nc(N)n1")
7.16
>>> test_result("Cc1c(C#N)cccc1-c1cc(-c2cn(Cc3cccc(C(C)(C)O)n3)nn2)nc(N)n1 [ETRUMADENANT]")
8.12
>>> test_result("Cc1c(C#N)cccc1-c1cc(-c2cn(Cc3cccc4[nH]ccc34)nn2)nc(N)n1")
5.24
>>> test_result("Cc1c(C#N)cccc1-c1cc(-c2cn(Cc3c[nH]c4ccc(S(C)(=O)=O)cc34)nn2)nc(N)n1")
7.74
>>> test_result("COC(=O)c1ccc2[nH]cc(Cn3cc(-c4cc(-c5cccc(C#N)c5C)nc(N)n4)nn3)c2c1")
7.15
>>> test_result("Cc1c(C#N)cccc1-c1cc(-c2cn(Cc3c[nH]c4ccccc34)nn2)nc(N)n1")
6.95
>>> test_result("Cc1c(C#N)cccc1-c1cc(-c2cn(Cc3c[nH]c4ccc(C#N)cc34)nn2)nc(N)n1")
7.95
>>> test_result("Cc1c(C#N)cccc1-c1cc(-c2cn(Cc3c[nH]c4cnccc34)nn2)nc(N)n1")
5.72
>>> test_result("Cc1c(C#N)cccc1-c1cc(-c2cn(Cc3c[nH]c4cc(S(C)(=O)=O)ccc34)nn2)nc(N)n1")
6.37
>>> test_result("Cc1c(C#N)cccc1-c1cc(-c2cn(Cc3c[nH]c4cccc(Cl)c34)nn2)nc(N)n1")
6.76
>>> test_result("Cc1c(C#N)cccc1-c1cc(-c2cn(Cc3n[nH]c4ccccc34)nn2)nc(N)n1")
6.89
